experiment: Repeat dose oral capsule or intravenous infusion, tissue concentrations and ratios; format: in vivo, Male Beagle Dogs; conditions: male, Beagle, dog, lung/blood, intravenous, Beagle dogs; summary (group mean); Group 1 IV, Groups 2-4 oral capsules; read-out: Tissue-to-blood ratio Lung
EXPERIMENTAL READOUT: Kp
Numbers only.

Item under review: "N=C(N)c1ccc(OCCCCCOc2ccc(C(=N)N)cc2)cc1" . Reported Kp?
111

---

experiment: Repeat dose oral capsule or intravenous infusion pharmacokinetics in blood; assay type: in vivo, Male Beagle Dogs; settings: male, Beagle, dog, iv, 4 mg/kg/day, Beagle dogs, 2-h IV 4 mg/kg/day, Day 1, individual animals and Mean, read-out: Tmax
EXPERIMENTAL READOUT: Tmax (h)
Answers are plain numbers, in h.

Item under review: "N=C(N)c1ccc(OCCCCCOc2ccc(C(=N)N)cc2)cc1" . Reported Tmax?
1

---

test: Repeat dose oral capsule or intravenous infusion, tissue concentrations and ratios; assay type: in vivo, Male Beagle Dogs; conditions: male, Beagle, dog, kidney/blood, intravenous, Beagle dogs; summary (group mean); Group 1 IV, Groups 2-4 oral capsules; read-out: Tissue-to-blood ratio Kidney
EXPERIMENTAL READOUT: Kp

Item under review: "N=C(N)c1ccc(OCCCCCOc2ccc(C(=N)N)cc2)cc1" . Reported Kp?
386

---

assay: Repeat dose oral capsule or intravenous infusion, tissue concentrations and ratios; assay type: in vivo, Male Beagle Dogs; details: male, Beagle, dog, muscle/blood, iv, 4 mg/kg/day, Beagle dogs; IV; *Based on AUC; read-out: Tissue-to-blood ratio Muscle, based on AUC
EXPERIMENTAL READOUT: Kp
Give bare numbers.

Item under review: "N=C(N)c1ccc(OCCCCCOc2ccc(C(=N)N)cc2)cc1" . Reported Kp?
8.01

---

experiment: Repeat dose oral capsule or intravenous infusion, tissue concentrations and ratios; format: in vivo, Male Beagle Dogs; conditions: male, Beagle, dog, heart/blood, intravenous, Beagle dogs; summary (group mean); Group 1 IV, Groups 2-4 oral capsules; read-out: Tissue-to-blood ratio Heart
EXPERIMENTAL READOUT: Kp
Answers are plain numbers.

Item under review: N=C(N)c1ccc(OCCCCCOc2ccc(C(=N)N)cc2)cc1 [pentamidine] . Reported Kp?
133

---

experiment: Repeat dose oral capsule or intravenous infusion, tissue concentrations and ratios; type: in vivo, Male Beagle Dogs; settings: male, Beagle, dog, liver/blood, intravenous, Beagle dogs; summary (group mean); Group 1 IV, Groups 2-4 oral capsules; read-out: Tissue-to-blood ratio Liver
EXPERIMENTAL READOUT: Kp

Item under review: N=C(N)c1ccc(OCCCCCOc2ccc(C(=N)N)cc2)cc1 [pentamidine] . Reported Kp?
1690

---

experiment: Repeat dose oral capsule or intravenous infusion pharmacokinetics in blood; format: in vivo, Male Beagle Dogs; details: male, Beagle, dog, iv, 4 mg/kg/day, Beagle dogs, 2-h IV 4 mg/kg/day, Day 1, individual animals and Mean
EXPERIMENTAL READOUT: Cmax (nM)
One number for each entry, in nM.

Item under review: N=C(N)c1ccc(OCCCCCOc2ccc(C(=N)N)cc2)cc1 [pentamidine] . Reported Cmax?
1430

---

experiment: Repeat dose oral capsule or intravenous infusion, tissue concentrations and ratios; format: in vivo, Male Beagle Dogs; settings: male, Beagle, dog, brain/blood, intravenous, Beagle dogs; summary (group mean); Group 1 IV, Groups 2-4 oral capsules; read-out: Tissue-to-blood ratio Brain
EXPERIMENTAL READOUT: Kp
One number for each entry.

Item under review: N=C(N)c1ccc(OCCCCCOc2ccc(C(=N)N)cc2)cc1 [pentamidine] . Reported Kp?
6.19
